Origin of values: PubChem BioAssay (NCI)

Below, each entry is listed with its recorded growth.
- Test system: RXF 393 renal
- ASSAY_NOTES: NCI-60 one-dose screen, 48 h (100 = growth as untreated, 0 = no growth, -100 = all killed)
- TEST_CONTEXT: 10 µM unless noted
This is part of a sample that, as a whole, favours compounds with a hit. Of some 83,000 tested, about 20% had one in any assay.
MEASURE: growth (%)

compound=COc1ccc2sc3c(NCCCNCCO)nc4ccccc4c3c(=O)c2c1 measure=growth reported=52.3
compound="CC1(C)C2CC1C1(/C=N\\Nc3ccccc3)C(C2)C(C#N)(C#N)C1(C#N)C#N (centres undefined)" measure=growth reported=103
compound="C/C=C(\\C)C(=O)N[C@H]1[C@@H](OC(C)=O)C[C@]2(C)C3CC[C@@]4(C)C(CC[C@@H]4C(C)N(C)C)C3CCC2[C@H]1O (some centres undefined)" measure=growth reported=83.2
compound=COc1ccc(S(=O)(=O)n2c3ccccc3n3ncc(-c4nnc(C)o4)c23)cc1 measure=growth reported=-22.2
compound=CCOC(=O)c1cn2ncnc(Oc3ccc(NC(=O)NCCN(C)C)c(Cl)c3)c2c1C measure=growth reported=55.6
compound=COc1cc(C(=O)/C=C/c2ccc(OCCCCCC[P+](c3ccccc3)(c3ccccc3)c3ccccc3)cc2)cc(OC)c1OC measure=growth reported=-47.3
compound=CNc1ccc(Nc2cccc(C)c2)c2c1C(=O)c1ccccc1C2=O measure=growth reported=93.4
compound="CN1C(=O)N(C)C2Nn3c(s/c(=C\\c4ccccc4)c3=O)=NC21 (centres undefined)" measure=growth reported=106
compound="CCOC(=O)C1=C(N)Oc2c(sc3c(CC)cccc23)C1c1ccc(F)cc1 (centres undefined)" measure=growth reported=-4.56

* * *

Below, each entry is listed with its recorded growth.
- Tested on: MDA-MB-435 melanoma
- ASSAY_NOTES: NCI-60 one-dose screen, 48 h (100 = growth as untreated, 0 = no growth, -100 = all killed)
- TEST_CONTEXT: 10 µM unless noted
Compounds without any hit were thinned out: in the full panel of roughly 83,000, 20% have a hit. Calls of active or inactive are those of the source. Rule for the calls: active = growth percent below 10; inactive = the rest.
MEASURE: growth

structure_smiles=CCOc1ccc2nc(SCc3nc4n(n3)S(=O)(=O)c3ccccc3N4C)sc2c1 measure=growth reported="60.8% (inactive)"
structure_smiles=C=CCNc1ccc2c3c(cccc13)C(=O)N(N1C(=O)c3cccc4cccc(c34)C1=O)C2=O measure=growth reported="101% (inactive)"
structure_smiles=COc1ccc(-c2nc(NCCO)[nH]c(=O)c2C#N)cc1 measure=growth reported="103% (inactive)"

* * *

- System: CCRF-CEM leukemia
- ASSAY_NOTES: NCI-60 one-dose screen, 48 h (100 = growth as untreated, 0 = no growth, -100 = all killed)
- TEST_CONTEXT: 10 µM unless noted
This is part of a sample that, as a whole, favours compounds with a hit. Of some 83,000 tested, about 20% had one in any assay.
MEASURE: growth (%)

compound=CN1CCN(Cc2ccc(NC(=O)c3ccc(C(C)(C)C)c(C#Cc4cnc5cccnn45)c3)cc2C(F)(F)F)CC1 reported=-36.7
compound=COc1cc(/C=C/c2c(C(C)=O)c(C)nc3ccccc23)cc(OC)c1OC reported=21.3
compound="CC1Cc2c(ncn3c(-c4ccc(F)cc4)nnc23)N(C)c2ccccc21 (stereo unspecified)" reported=49.3
compound=Cc1cc(C)c(-c2c(N)cc(Br)cc2Br)c(N)c1 reported=26.4
compound=Cc1ccccc1C(=O)NN reported=100
compound=CN1C(=O)CNC(=O)[C@H](NC(=O)c2nc3ccccc3cc2O)CSSC[C@H]1C(=O)NCCCc1nc2ccccc2cc1O reported=14.3
compound=COc1ccc(/C=C(\C#N)n2nnc3c(F)cccc32)cc1 reported=18.9
compound="CC(=O)CC(c1cccs1)c1c(-c2ccccc2)[nH]c2ccccc12 (stereo unspecified)" reported=92.6
compound="O=C1CCC(C(=O)NCCNCCNC(=O)C2CCC(=O)N2)N1 (stereo unspecified)" reported=88.7
compound=O=C(COc1ccc(/C=C2\Cc3ccc(Cl)cc3C2=O)cc1)Nc1nc2ccccc2s1 reported=73.5
compound=COc1cc(C(=O)/C=C/c2sc(Cl)nc2Cl)cc(OC)c1OC reported=10.9
